Form field: pKi (one value per entry).
Molecular target: Aurora kinase A (Homo sapiens, UniProt O14965)
Sequence (O14965 whole entry): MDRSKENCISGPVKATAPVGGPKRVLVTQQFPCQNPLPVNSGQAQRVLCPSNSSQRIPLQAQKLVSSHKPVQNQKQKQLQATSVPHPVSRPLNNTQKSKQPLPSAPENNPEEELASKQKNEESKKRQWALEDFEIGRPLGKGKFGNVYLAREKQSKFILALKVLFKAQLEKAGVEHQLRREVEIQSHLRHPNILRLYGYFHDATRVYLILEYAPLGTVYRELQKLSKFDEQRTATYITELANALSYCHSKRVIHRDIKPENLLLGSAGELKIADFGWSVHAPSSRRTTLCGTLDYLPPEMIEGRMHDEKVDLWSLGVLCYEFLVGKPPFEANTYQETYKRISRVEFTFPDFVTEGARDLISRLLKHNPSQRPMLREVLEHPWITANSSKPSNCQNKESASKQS
pKi: −log10 of the molar value.

# sample-smiles, pKi
measured = [
    ("COc1cc2c(Nc3cc(CC(=O)Nc4ccc(F)cc4)[nH]n3)ncnc2cc1OCCCN1CCC(CO)CC1", 7.52),
    ("COc1cc2c(Nc3cc(CC(=O)Nc4cccc(Cl)c4)[nH]n3)ncnc2cc1OCCCN1CCC(CO)CC1", 8.10),
    ("COc1cc2c(Nc3cc(CC(=O)Nc4cccc(C(F)(F)F)c4)[nH]n3)ncnc2cc1OCCCN1CCC(CO)CC1", 7.89),
    ("COc1cc2c(Nc3cc(CC(=O)Nc4cccc(O)c4)[nH]n3)ncnc2cc1OCCCN1CCC(CO)CC1", 6.85),
    ("COc1cc2c(Nc3cc(CC(=O)Nc4cccc(C#N)c4)[nH]n3)ncnc2cc1OCCCN1CCC(CO)CC1", 7.08),
    ("COc1cc2c(Nc3cc(CC(=O)Nc4cccc([N+](=O)[O-])c4)[nH]n3)ncnc2cc1OCCCN1CCC(CO)CC1", 7.41),
    ("COc1cc2c(Nc3cc(CC(=O)Nc4ccccc4F)[nH]n3)ncnc2cc1OCCCN1CCC(CO)CC1", 7.85),
    ("COc1cc2c(Nc3cc(CC(=O)Nc4ccccc4)[nH]n3)ncnc2cc1OCCCN1CCC(CO)CC1", 7.74),
]

Data provenance is ChEMBL document CHEMBL1147984.
